Each entry below carries its recorded melting point.

Consider the following illustrative entries.
compound | melting point
CNc1ccc(CCN2CCC[C@@H]2CN2c3ccccc3COc3ccccc32)cc1.Cl.Cl | 134 to 137 °C
CNc1cccc(CCN2CCC[C@@H]2CN2c3ccccc3COc3ccccc32)c1.Cl.Cl | 179 to 181 °C
CN(C)c1cccc(CCN2CCC[C@@H]2CN2c3ccccc3COc3ccccc32)c1.Cl.Cl [Example 10] | 125 to 128 °C

Next:
# input Item under review: "COc1ccc(CCCN2CCC[C@@H]2CN2c3ccccc3COc3ccccc32)cc1.Cl" . Reported melting point?
# output 172 to 174 °C

###

biological target: calcium channel (ileum) (Rattus norvegicus); test: In vitro calcium channel-antagonistic effect (ileum): inhibition of high potassium contraction of ileum samples; format: cell-based, rat (male Crj:CD); details: high potassium contraction, 30 minute pretreatment, read-out: IC50(nM), concentration for 50% contraction inhibition
metricName: IC50
Units required after the number.

# input Item under review: COc1ccc(CCN2CCCC2CN2c3ccccc3CSc3ccccc32)cc1.O=C(O)/C=C\C(=O)O (stereo not shown) [Compound A, reference compound] . Reported IC50?
# output 120 nM

###

Each entry below carries its recorded melting point.

compound | metricName | assayResult
COc1ccc(CCN2CCC[C@@H]2CN2c3ccccc3COc3ccccc32)cc1N(C)C.Cl.Cl | melting point | 141 to 144 °C
Cl.Cl.Nc1cccc(CCN2CCC[C@@H]2CN2c3ccccc3COc3ccccc32)c1 [Example 13] | melting point | 149 to 152 °C

# input Item under review: CCN(CC)c1ccc(CCN2CCC[C@@H]2CN2c3ccccc3COc3ccccc32)cc1.Cl.Cl [Example 6] . Reported melting point?
# output 143 to 146 °C

# input Item under review: "COc1ccc(C=CCN2CCC[C@@H]2CN2c3ccccc3COc3ccccc32)cc1.Cl" . Reported melting point?
# output 120 to 122 °C

# input Item under review: "Cl.Cl.Nc1ccccc1CCN1CCC[C@@H]1CN1c2ccccc2COc2ccccc21" . Reported melting point?
# output 168 to 172 °C

# input Item under review: "Cl.Cl.Nc1ccc(CCN2CCC[C@@H]2CN2c3ccccc3COc3ccccc32)cc1" . Reported melting point?
# output 176 to 180 °C

# input Item under review: CN(C)c1cccc(CCN2CCC[C@@H]2CN2c3ccccc3COc3ccccc32)c1.Cl.Cl [Example 19] . Reported melting point?
# output 170 to 172 °C

###

target: calcium channel (ileum) (Rattus norvegicus, UniProt P22002); assay: In vitro calcium channel-antagonistic effect (ileum): inhibition of high potassium contraction of ileum samples; assay type: cell-based, rat (male Crj:CD); settings: high potassium (45.0 mM KCl) contraction, 10^−7 M test compound, 30 minute pretreatment, read-out: Inhibition rate (%) (conc.: 10^−7M)
Sequence (P22002 whole entry): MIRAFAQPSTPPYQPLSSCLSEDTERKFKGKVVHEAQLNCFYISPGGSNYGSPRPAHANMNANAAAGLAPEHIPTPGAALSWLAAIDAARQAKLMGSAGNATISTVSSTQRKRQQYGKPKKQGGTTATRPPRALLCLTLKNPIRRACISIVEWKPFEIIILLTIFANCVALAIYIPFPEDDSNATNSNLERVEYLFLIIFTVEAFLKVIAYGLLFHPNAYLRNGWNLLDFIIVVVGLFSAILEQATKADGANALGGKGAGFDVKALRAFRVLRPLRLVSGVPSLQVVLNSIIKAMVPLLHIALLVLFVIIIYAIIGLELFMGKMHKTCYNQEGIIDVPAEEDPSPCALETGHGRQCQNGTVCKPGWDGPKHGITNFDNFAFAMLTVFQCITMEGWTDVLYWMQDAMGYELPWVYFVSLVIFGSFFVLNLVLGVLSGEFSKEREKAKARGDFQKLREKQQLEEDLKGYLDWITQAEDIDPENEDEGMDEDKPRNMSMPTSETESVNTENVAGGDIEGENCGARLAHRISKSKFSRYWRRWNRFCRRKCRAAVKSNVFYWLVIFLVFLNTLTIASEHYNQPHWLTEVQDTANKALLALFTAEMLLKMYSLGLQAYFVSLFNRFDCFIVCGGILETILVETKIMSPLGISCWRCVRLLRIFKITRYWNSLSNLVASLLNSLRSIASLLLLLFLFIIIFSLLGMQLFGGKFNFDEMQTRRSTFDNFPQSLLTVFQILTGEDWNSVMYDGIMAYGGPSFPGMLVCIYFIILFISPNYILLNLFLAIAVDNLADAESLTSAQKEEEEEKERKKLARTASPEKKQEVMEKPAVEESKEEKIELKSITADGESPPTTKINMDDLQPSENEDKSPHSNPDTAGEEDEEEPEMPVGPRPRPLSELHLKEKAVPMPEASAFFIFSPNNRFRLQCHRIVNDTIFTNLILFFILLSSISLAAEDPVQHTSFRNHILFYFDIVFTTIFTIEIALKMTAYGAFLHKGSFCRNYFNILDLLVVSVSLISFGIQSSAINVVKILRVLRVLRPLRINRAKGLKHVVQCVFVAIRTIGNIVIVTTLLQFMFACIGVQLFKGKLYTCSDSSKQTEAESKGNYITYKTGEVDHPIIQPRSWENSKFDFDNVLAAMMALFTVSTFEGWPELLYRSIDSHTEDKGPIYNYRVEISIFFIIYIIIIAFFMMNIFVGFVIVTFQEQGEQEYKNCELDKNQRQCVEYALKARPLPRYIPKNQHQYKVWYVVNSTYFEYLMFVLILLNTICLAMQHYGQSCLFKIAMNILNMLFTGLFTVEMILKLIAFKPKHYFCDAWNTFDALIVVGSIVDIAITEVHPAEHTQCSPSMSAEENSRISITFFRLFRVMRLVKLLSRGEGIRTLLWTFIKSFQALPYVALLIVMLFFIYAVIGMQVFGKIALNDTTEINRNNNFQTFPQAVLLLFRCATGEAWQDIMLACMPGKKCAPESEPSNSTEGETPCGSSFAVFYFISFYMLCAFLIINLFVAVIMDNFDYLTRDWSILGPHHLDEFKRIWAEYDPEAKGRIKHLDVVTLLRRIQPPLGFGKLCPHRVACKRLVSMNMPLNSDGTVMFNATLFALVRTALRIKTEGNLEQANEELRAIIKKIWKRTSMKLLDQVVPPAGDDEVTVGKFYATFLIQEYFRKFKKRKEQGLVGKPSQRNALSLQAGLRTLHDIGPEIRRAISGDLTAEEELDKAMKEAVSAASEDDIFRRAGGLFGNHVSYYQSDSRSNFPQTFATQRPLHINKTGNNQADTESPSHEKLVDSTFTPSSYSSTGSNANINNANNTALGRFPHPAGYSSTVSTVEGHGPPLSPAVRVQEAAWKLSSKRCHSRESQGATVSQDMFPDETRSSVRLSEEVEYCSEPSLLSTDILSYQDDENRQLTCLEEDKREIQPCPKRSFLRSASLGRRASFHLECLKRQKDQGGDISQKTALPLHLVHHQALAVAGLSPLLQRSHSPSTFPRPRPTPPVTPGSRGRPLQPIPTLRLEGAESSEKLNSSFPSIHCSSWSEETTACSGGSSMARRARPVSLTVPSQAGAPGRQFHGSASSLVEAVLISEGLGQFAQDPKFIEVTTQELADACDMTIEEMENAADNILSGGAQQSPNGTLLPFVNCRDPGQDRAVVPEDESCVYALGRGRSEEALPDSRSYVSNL
# inhibition at 0.1 µM >= 70% gives 1, anything below gives -1

Study these solved cases before continuing.
compound | studyTarget | groupLabel
CNc1cccc(CCN2CCC[C@@H]2CN2c3ccccc3COc3ccccc32)c1.Cl.Cl [Example 14, Dihydrochloride] | calcium channel (ileum) (Rattus norvegicus, UniProt P22002) | 1
CN(C)c1cccc(CCCN2CCC[C@@H]2CN2c3ccccc3COc3ccccc32)c1.Cl.Cl [Example 38, Dihydrochloride] | calcium channel (ileum) (Rattus norvegicus, UniProt P22002) | -1
CN(C)c1ccc(CCN2CCC[C@@H]2CN2c3ccccc3COc3ccccc32)cc1.Cl.Cl [Example 2, Dihydrochloride] | calcium channel (ileum) (Rattus norvegicus, UniProt P22002) | -1
CCN(CC)c1ccc(CCN2CCC[C@@H]2CN2c3ccccc3COc3ccccc32)cc1.Cl.Cl [Example 6, Dihydrochloride] | calcium channel (ileum) (Rattus norvegicus, UniProt P22002) | -1
COc1ccc(CCCN2CCC[C@@H]2CN2c3ccccc3COc3ccccc32)cc1.Cl [Example 24, Hydrochloride] | calcium channel (ileum) (Rattus norvegicus, UniProt P22002) | -1

# input Decide: is the reported value of inhibition at 0.1 µM for CN(C)c1cccc(CCN2CCC[C@@H]2CN2c3ccccc3COc3ccccc32)c1.Cl.Cl [Example 10, Dihydrochloride] equal to or greater than 70%?
# output 1

###

Assay: Determination of solubility in neutral buffer solution
Assay type: physicochemical
Conditions: aqueous buffer, thermodynamic from solid; 0.15 M phosphate buffer pH 7.2, room temperature, left overnight, supernatant by HPLC
Protocol: Determination of Solubility: A test compound was suspended in 0.15 M phosphate buffer solution having pH of 7.2 at room temperature. The obtained suspension was vigorously shaken and then left to stand overnight. The insoluble compound was removed by centrifugation, and the concentration of the compound in the supernatant was determined by the high-performance liquid chromatography.
Each entry below carries its recorded solubility.
// units = µg/mL; emit number, no label

Consider the following illustrative entries.
molecule | unitTag | assayResult
CN(C)c1ccc(CCN2CCC[C@@H]2CN2c3ccccc3COc3ccccc32)cc1.Cl.Cl [Example 2] | µg/mL | 36
CNc1cccc(CCN2CCC[C@@H]2CN2c3ccccc3COc3ccccc32)c1.Cl.Cl [Example 14] | µg/mL | 56
COc1ccc(CCN2CCCC2CN2c3ccccc3CSc3ccccc32)cc1.O=C(O)/C=C\C(=O)O (stereo not drawn) [Compound A, reference compound] | µg/mL | 13

# input Item under review: CCN(CC)c1ccc(CCN2CCC[C@@H]2CN2c3ccccc3COc3ccccc32)cc1.Cl.Cl [Example 6] . Reported solubility?
# output 638

# input Item under review: CNc1ccc(CCN2CCC[C@@H]2CN2c3ccccc3COc3ccccc32)cc1.Cl.Cl [Example 8] . Reported solubility?
# output 116

# input Item under review: CN(C)c1cccc(CCCN2CCC[C@@H]2CN2c3ccccc3COc3ccccc32)c1.Cl.Cl [Example 38] . Reported solubility?
# output 41

# input Item under review: CN(C)c1cccc(CCN2CCC[C@@H]2CN2c3ccccc3COc3ccccc32)c1.Cl.Cl [Example 10] . Reported solubility?
# output 30

# input Item under review: Cl.Cl.Nc1cccc(CCN2CCC[C@@H]2CN2c3ccccc3COc3ccccc32)c1 [Example 13] . Reported solubility?
# output 418

# input Item under review: COc1ccc(CCCN2CCC[C@@H]2CN2c3ccccc3COc3ccccc32)cc1.Cl [Example 24] . Reported solubility?
# output 49

###

Biological target: calcium channel (blood vessel, thoracic aortae) (Rattus norvegicus, UniProt P22002)
Sequence (P22002 whole entry): as above
Assay: In vitro calcium channel-antagonistic effect (blood vessel): inhibition of high potassium contraction of thoracic aorta spiral samples
Type: cell-based, rat (male Crj:CD)
Conditions: high potassium (45.0 mM KCl) contraction, 10^−7 M test compound, 30 minute pretreatment, read-out: Inhibition rate (%) (conc.: 10^−7M)
Protocol: In Vitro Calcium Channel-antagonistic Effect (Blood Vessel): The thoracic aortae were taken out of male Crj:CD rats (8-12 weeks old) and spiral samples were prepared from them. […] As for the change in tension of each blood vessel, the isometry was recorded on an ink writing recorder through a transducer. […] The high potassium contraction-inhibiting effect of the test compound was determined by 30 minute pretreatment. […] In Table 1, “−” means not determined.
metricName: inhibition at 0.1 µM (%)
// units = %; emit number, no label

Consider the following illustrative entries.
molecule | unitTag | inhibition at 0.1 µM
CN(C)c1cccc(CCCN2CCC[C@@H]2CN2c3ccccc3COc3ccccc32)c1.Cl.Cl [Example 38, Dihydrochloride] | % | 25
COc1ccc(CCCN2CCC[C@@H]2CN2c3ccccc3COc3ccccc32)cc1.Cl [Example 24, Hydrochloride] | % | 31
CN(C)c1ccc(CCN2CCC[C@@H]2CN2c3ccccc3COc3ccccc32)cc1.Cl.Cl [Example 2, Dihydrochloride] | % | 12
CCN(CC)c1ccc(CCN2CCC[C@@H]2CN2c3ccccc3COc3ccccc32)cc1.Cl.Cl [Example 6, Dihydrochloride] | % | 24
CN(C)c1cccc(CCN2CCC[C@@H]2CN2c3ccccc3COc3ccccc32)c1.Cl.Cl [Example 10, Dihydrochloride] | % | 51

# input Item under review: CNc1cccc(CCN2CCC[C@@H]2CN2c3ccccc3COc3ccccc32)c1.Cl.Cl [Example 14, Dihydrochloride] . Reported inhibition at 0.1 µM?
# output 41

###

target: calcium channel (blood vessel, thoracic aortae) (Rattus norvegicus); test: In vitro calcium channel-antagonistic effect (blood vessel): inhibition of high potassium contraction of thoracic aorta spiral samples; assay type: cell-based, rat (male Crj:CD); details: high potassium contraction, 30 minute pretreatment, read-out: IC50 (nM), concentration for 50% contraction inhibition
metricName: IC50 (nM)
// units = nM; emit number, no label

# input Form: Entry = COc1ccc(CCN2CCCC2CN2c3ccccc3CSc3ccccc32)cc1.O=C(O)/C=C\C(=O)O (stereo not shown) [Compound A, reference compound] | System = calcium channel (blood vessel, thoracic aortae) (Rattus norvegicus) | IC50 = ____
# output 530

###

Each entry below carries its recorded melting point.

Consider the following illustrative entries.
compound | melting point
COc1ccc(OCCN2CCC[C@@H]2CN2c3ccccc3COc3ccccc32)cc1.Cl | 186 to 191 °C
CN(C)c1ccc(CCN2CCC[C@@H]2CN2c3ccccc3COc3ccccc32)cc1.Cl.Cl [Example 2] | 164 to 169 °C
Cl.O[C@@H](CCN1CCC[C@@H]1CN1c2ccccc2COc2ccccc21)c1ccccc1 | 149 to 150 °C
CN(C)c1cccc(CCCN2CCC[C@@H]2CN2c3ccccc3COc3ccccc32)c1.Cl.Cl [Example 38] | 120 to 123 °C

Next:
# input Item under review: "Cl.O[C@H](CCN1CCC[C@@H]1CN1c2ccccc2COc2ccccc21)c1ccccc1" . Reported melting point?
# output 179 to 182 °C

Source: patent US6562808B1
